Target: T1, human GARP-TGF-β1 complex (recombinant complex of human GARP and latent human TGF-β1) (human, UniProt Q14392 20-627; P01137 30-278; P01137 279-390)
T1 construct: also called huGARP-TGF-β1; hGARP-TGF-β1
T1 sequence (Q14392 20-627 limits assumed, chain 1 of 3): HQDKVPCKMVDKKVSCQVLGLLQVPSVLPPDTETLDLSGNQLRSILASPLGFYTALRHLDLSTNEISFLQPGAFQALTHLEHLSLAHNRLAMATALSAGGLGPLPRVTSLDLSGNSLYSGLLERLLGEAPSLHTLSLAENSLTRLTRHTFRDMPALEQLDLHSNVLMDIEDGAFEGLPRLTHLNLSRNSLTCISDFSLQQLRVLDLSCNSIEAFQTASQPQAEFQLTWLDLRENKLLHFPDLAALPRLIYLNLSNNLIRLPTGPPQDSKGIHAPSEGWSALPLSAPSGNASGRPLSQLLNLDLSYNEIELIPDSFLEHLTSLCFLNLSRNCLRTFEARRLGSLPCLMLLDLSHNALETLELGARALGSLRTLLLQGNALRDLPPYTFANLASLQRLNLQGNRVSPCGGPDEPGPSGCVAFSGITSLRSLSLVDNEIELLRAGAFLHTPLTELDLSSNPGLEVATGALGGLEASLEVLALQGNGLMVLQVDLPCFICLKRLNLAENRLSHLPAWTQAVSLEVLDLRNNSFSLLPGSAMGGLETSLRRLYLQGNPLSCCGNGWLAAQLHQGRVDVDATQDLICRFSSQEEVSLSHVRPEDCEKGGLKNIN
T1 sequence (P01137 30-278 limits assumed, chain 2 of 3): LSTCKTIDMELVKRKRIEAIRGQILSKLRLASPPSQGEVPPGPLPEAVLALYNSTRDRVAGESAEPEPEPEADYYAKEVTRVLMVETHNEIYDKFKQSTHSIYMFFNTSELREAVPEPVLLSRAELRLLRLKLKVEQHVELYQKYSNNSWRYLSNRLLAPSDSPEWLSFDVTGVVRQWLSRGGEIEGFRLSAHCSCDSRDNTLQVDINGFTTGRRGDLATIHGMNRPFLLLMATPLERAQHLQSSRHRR
T1 sequence (P01137 279-390 limits assumed, chain 3 of 3): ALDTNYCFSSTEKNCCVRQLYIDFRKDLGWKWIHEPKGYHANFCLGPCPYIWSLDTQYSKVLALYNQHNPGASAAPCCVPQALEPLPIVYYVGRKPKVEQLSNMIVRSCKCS
Assay: SPR Biacore 3000, chip ~4000 RU hGARP-TGF-β; slope vs -20°C reference (=100%); sample 0 d, 5°C arm
Reported values of Activity on Biacore (%) for individual entries

Binder | Activity on Biacore (%)
39B6-ANK IgG4 S228P (antibody, V domains shown, Variant of 39B6-A in IgG4 S228P format; Positions are Kabat-type) VH: QVQLVQPGAEVRKPGASVKVSCKASGYRFTSYYIDWVRQAPGQGLEWMGRIDPEDAGTKYAQKFQGRVTMTADTSTSTVYVELSSLRSEDTAVYYCARNKWETVVVGDLMYEYEYWGQGTLVTVSS VL: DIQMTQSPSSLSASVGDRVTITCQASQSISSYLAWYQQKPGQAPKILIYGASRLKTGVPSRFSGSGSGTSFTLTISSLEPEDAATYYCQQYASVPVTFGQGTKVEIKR | 130
39B6-AYE (ARGX-115), IgG4 S228P (antibody, V domains shown) VH: QVQLVQPGAEVRKPGASVKVSCKASGYRFTSYYIDWVRQAPGQGLEWMGRIDPEDAGTKYAQKFQGRVTMTADTSTSTVYVELSSLRSEDTAVYYCARYEWETVVVGDLMYEYEYWGQGTLVTVSS VL: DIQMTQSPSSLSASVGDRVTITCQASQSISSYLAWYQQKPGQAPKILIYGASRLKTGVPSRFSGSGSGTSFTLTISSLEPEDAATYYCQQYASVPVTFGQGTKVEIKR | 93.5
39B6-ANR IgG4 S228P (antibody, V domains shown, Variant of 39B6-A in IgG4 S228P format; Positions are Kabat-type) VH: QVQLVQPGAEVRKPGASVKVSCKASGYRFTSYYIDWVRQAPGQGLEWMGRIDPEDAGTKYAQKFQGRVTMTADTSTSTVYVELSSLRSEDTAVYYCARNRWETVVVGDLMYEYEYWGQGTLVTVSS VL: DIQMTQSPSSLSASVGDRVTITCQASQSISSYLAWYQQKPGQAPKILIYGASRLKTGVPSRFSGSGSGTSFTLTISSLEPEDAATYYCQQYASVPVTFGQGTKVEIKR | 101
39B6-AVE IgG4 S228P (antibody, V domains shown, Variant of 39B6-A in IgG4 S228P format; Positions are Kabat-type) VH: QVQLVQPGAEVRKPGASVKVSCKASGYRFTSYYIDWVRQAPGQGLEWMGRIDPEDAGTKYAQKFQGRVTMTADTSTSTVYVELSSLRSEDTAVYYCARVEWETVVVGDLMYEYEYWGQGTLVTVSS VL: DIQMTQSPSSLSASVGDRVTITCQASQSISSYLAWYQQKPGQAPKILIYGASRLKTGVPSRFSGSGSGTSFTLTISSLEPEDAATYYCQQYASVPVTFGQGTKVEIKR | 99.5
